The measurements presented in this section are drawn from ChEMBL document CHEMBL1130407.

Sequence of the target: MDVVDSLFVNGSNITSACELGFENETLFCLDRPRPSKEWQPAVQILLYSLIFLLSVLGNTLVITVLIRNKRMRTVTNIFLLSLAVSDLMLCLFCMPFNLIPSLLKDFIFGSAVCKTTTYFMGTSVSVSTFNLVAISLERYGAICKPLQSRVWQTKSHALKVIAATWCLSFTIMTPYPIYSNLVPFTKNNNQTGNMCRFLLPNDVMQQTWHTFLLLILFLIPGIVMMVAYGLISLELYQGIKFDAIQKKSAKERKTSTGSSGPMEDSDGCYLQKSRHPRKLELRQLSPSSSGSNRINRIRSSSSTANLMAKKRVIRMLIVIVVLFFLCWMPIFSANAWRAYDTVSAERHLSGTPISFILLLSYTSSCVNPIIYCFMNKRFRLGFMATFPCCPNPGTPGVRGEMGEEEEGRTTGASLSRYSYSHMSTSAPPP
pKi: −log10 of the molar value.
testReadout: pKi

C[C@]1(Cc2c[nH]c3ccccc23)NC(=O)CCCCCCC[C@H](C(=O)N[C@@H](CC(=O)O)C(=O)N[C@@H](Cc2ccccc2)C(N)=O)NC1=O | 5.66

P: C[C@]1(Cc2c[nH]c3ccccc23)NC(=O)CCCCSSCC[C@@H](C(=O)N[C@@H](CC(=O)O)C(=O)N[C@@H](Cc2ccccc2)C(N)=O)NC1=O
Q: C[C@]1(Cc2c[nH]c3ccccc23)NC(=O)CCCCCCCC[C@@H](C(=O)N[C@@H](CC(=O)O)C(=O)N[C@@H](Cc2ccccc2)C(N)=O)NC1=O
Decide: P or Q , by lowest recorded pKi. Output the label that corresponds to your choice. Q
(Q: 5.61, P: 6.57)
